Tested on: choline oxidase
method notes: Substrate specificity of choline oxidase (authentic sample of Example 1)
Type: biochemical, Streptomyces thermoluteus subsp. fuscus C-19
condition summary: substrate used in place of choline chloride; relative to choline; enzyme of Example 1; Tris-HCl pH 8.0, 37° C
Procedure: Enzymatic activity (U/ml)=ΔA/min.×10.17×dilution ratio According to the above determination method of enzymatic activity, various substrates shown in Table 2 were used in place of choline chloride in the reaction mixture, their relative activities to choline were determined. As the enzyme, the authentic sample obtained in Example 1 hereinafter was employed.
Listed here: items and their measured Relative Activity (%).
Kindly answer with a numeric value in %, unit omitted.

Sample records with Relative Activity (%):
>>> obs_value("NCCO")
0
>>> obs_value("C[N+](C)(C)CC=O")
41.9
>>> obs_value("CNCCO")
0

As a next step, examine the molecule that follows.
Indicate the recorded Relative Activity (%) value for this molecule: "OCCNCCO" 0

----------
System: choline oxidase
Format: biochemical
condition summary: additive 5 mM; without addition = 100
Measured Relative Activity (%) of individual entries
The reply should be a number in %, with the unit left off.

Please review the following examples before continuing.
>>> obs_value("Cl.N")
100
>>> obs_value("[Ba+2].[Cl-].[Cl-]")
100
>>> obs_value("[Cl][Mn][Cl]")
100
>>> obs_value("[Cl-].[Cl-].[Mg+2]")
93.8
>>> obs_value("[Ca+2].[Cl-].[Cl-]")
100
>>> obs_value("[Cl-].[K+]")
98.0
>>> obs_value("[Cl-].[Cl-].[Co+2]")
36.9
>>> obs_value("[Cl-].[Cl-].[Zn+2]")
82.9

For the next question, use this compound.
Look up Relative Activity (%) of "[Cl-].[Li+]" and report it. 100

FYI, the data here is from patent US5079157A.
